pIC50 data for NT-3 growth factor receptor (Homo sapiens) follow.
pIC50: −log10 of the molar value.
RESULT_TYPE: pIC50

>>> measured_result("CCc1cc(O)c(F)cc1-c1ccc2c(-c3nc4c([nH]3)CN(C3CCCCN3C(=O)N3CCCCC3N3Cc5nc(-c6n[nH]c7cc(-c8cc(F)c(O)cc8CC)ccc67)[nH]c5C3)C4)n[nH]c2c1 (centres undefined)")
8.20
>>> measured_result("CCc1cc(O)c(F)cc1-c1ccc2c(-c3nc4c([nH]3)CN(C3CN(C(=O)N5CCOC(N6Cc7nc(-c8n[nH]c9cc(-c%10cc(F)c(O)cc%10CC)ccc89)[nH]c7C6)C5)CCO3)C4)n[nH]c2c1 (centres undefined)")
9.19

(A) CCc1cc(O)c(F)cc1-c1ccc2c(-c3nc4c([nH]3)CN(C3CCCN3C(=O)N3CCCC3N3Cc5nc(-c6n[nH]c7cc(-c8cc(F)c(O)cc8CC)ccc67)[nH]c5C3)C4)n[nH]c2c1 (centres undefined)
(B) CCc1cc(O)c(F)cc1-c1ccc2c(-c3nc4c([nH]3)CN(C3CN(C)CCN3C(=O)N3CCN(C)CC3N3Cc5nc(-c6n[nH]c7cc(-c8cc(F)c(O)cc8CC)ccc67)[nH]c5C3)C4)n[nH]c2c1 (centres undefined)
Q) // which entry has the larger pIC50 value, A or B ? I would appreciate it if you answered with the label of your choice.
A) B
(B: 9.57, A: 8.83)
